target: T1, amyloid β (Aβ)-derived diffusible ligands (ADDLs) (UniProt P05067 672-713); assay: phage/Fab ELISA on ADDLs, anti-M13-HRP detection
T1 construct: domain: Aβ1-42; Soluble oligomers of Aβ1-42, with the number of chains per oligomer not fixed; They were prepared from HFIP film in DMSO/F12 and enriched on a 50 kDa filter; The result sentences say 'ADDLs'; also called ADDL oligomers; soluble …
T1 sequence (P05067 672-713 limits assumed): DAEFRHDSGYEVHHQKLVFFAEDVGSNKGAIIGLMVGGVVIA
Measure Name: binding result

// recorded binding result for Fab clone 14.2 (phage-displayed) (Fab, V domains shown, VH is deduced from the parental VH being kept in the library) VH: EVQLVESGGGLVQPGGSLRLSCAASGFTFSSFGMHWVRQAPGKGLEWVAYISRGSSTIYYADTVKGRFTISRDNAKNSLYLQMNSLRAEDTAVYYCARGITTALDYWGQGTLVTVSS VL: DVVMTQSPLSLPVTPGEPASISCRSSQSIVHSNGNTYLEWYLQKPGQSPQLLIYKASNRFSGVPDRFSGSGSGTDFTLKISRVEAEDVGVYYCFQGSRVPPGFGQGTKLEIK : binds

Fab clone 11.4 (phage-displayed) (Fab, V domains shown, VH is deduced from the parental VH being kept in the library) VH: EVQLVESGGGLVQPGGSLRLSCAASGFTFSSFGMHWVRQAPGKGLEWVAYISRGSSTIYYADTVKGRFTISRDNAKNSLYLQMNSLRAEDTAVYYCARGITTALDYWGQGTLVTVSS VL: DVVMTQSPLSLPVTPGEPASISCRSSQSIVHSNGNTYLEWYLQKPGQSPQLLIYKASNRFSGVPDRFSGSGSGTDFTLKISRVEAEDVGVYYCFQGSRVPVRFGQGTKLEIK has a reported binding result of binds
